# koff per entry
tgt: T1, AAV9 (adeno-associated virus 9)
T1 construct: also called adeno-associated virus serotype 9
test_method_notes: SPR, AAV amine-coupled to CM5 chip;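 note: nanobodies flowed as analyte at seven concentrations spanning 1–100 nM over immobilized AAV (500–800 RU), kinetic constants derived by fitting the binding curves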
Record the value in s⁻¹, omitting the unit from your answer.

binder	property_label	recorded_number
A4-086 (VHH) VHH: VQLQESGGGLVQPGGSLRLSCAASGSRFSLNTMGWYRQAPGKQRELVAAVTRGGNTNYADFVKGRFTISRDNAKNTVYLQMNSLRPEDTAVYYCHVDELRESSWTTSNLWGQGTQVTVSS	koff	0.00026
A4-089 (VHH) VHH: VQLQESGGGLVQPGGSLRLSCAASGSNFSINTMGWYRQAPGKQRELVATFTRAGNTNYADSVKGRFTISRDNGKNTVYLQMNSLRPEDTAVYYCHVDEVRDSSWTTSNLWGQGTQVTVSS	koff	0.00041

Here is another binder to look at.
Item under review: A4-097 (VHH) VHH: VQLQESGGGLVQPGGSLRLSCIASGSIFSANTMGWYRQAPGKQRELVATITRGGNTNYGDSVKGRFTISRDNAKNTVYLQMNTLRPEDTAVYYCHVDEIRESSWTTSNLWGQGTQVTVSS . Reported koff?
0.00816

Ref: patent US20260193326A1
